All values here come from patent US12263171B2.

- MEASURED_TARGET: human A2a adenosine receptor (Homo sapiens (Human), UniProt P29274)
- Sequence (P29274 whole entry): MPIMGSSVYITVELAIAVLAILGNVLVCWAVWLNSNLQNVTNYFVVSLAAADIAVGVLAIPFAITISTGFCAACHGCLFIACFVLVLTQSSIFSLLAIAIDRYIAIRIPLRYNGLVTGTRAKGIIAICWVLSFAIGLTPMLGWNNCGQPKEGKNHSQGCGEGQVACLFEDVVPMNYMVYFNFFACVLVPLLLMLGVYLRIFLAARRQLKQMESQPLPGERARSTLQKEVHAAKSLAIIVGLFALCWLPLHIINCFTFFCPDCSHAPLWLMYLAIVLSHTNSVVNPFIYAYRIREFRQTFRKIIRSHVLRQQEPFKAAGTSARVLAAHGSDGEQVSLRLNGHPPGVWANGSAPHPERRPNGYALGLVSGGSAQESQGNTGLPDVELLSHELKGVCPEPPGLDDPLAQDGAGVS
- ASSAY: A2a receptor affinity radioligand binding assay ([3H] SCH58261, membranes from HEK293 or CHO cells)
- CONDITION_CONTEXT: unstarred values: radioligand binding
Give pIC50 for every item shown.
FYI, pIC50 means -log10 of a concentration in mol per litre.

Query for human A2a adenosine receptor (Homo sapiens (Human), UniProt P29274): what pIC50 does the record show for COc1cccc2c1nc(N)n1nc([C@H]3CC[C@H](C)N(c4cn(CC(C)(C)O)nc4C)C3)nc21 [Example 145B] ?
8.92

Ok, now COc1cccc2c1nc(N)n1nc([C@@H]3CCC[C@H](c4cnn(CC(C)(C)O)c4)C3)nc21 (single isomer, unassigned)
6.92

Also, COc1ccc2c(c1)nc(N)n1nc([C@@H]3CCCN(c4cnn(C(C)(C)[C@H](C)O)c4)C3)nc21 [Example 225A] please.
8.92

Ok, now COc1ccc2c(c1)nc(N)n1nc([C@@H]3CCCN(c4cn(CC(C)(C)O)nc4C)C3)nc21
9.00

Entry COc1cccc2c1nc(N)n1nc([C@@H]3CCCN(c4cnn(C(C)(C)C)c4)C3)nc21 please
8.89

Now this one: COc1ccc2c(c1)nc(N)n1nc([C@@H]3CCCN(c4cnn([C@H](C)C(C)(C)O)c4)C3)nc21 [Example 185A]
9.10

Another compound: COc1cccc2c1nc(N)n1nc(C3CCCCN(c4cn(C)nn4)C3)nc21 (stereo not drawn)
10.00

And for COc1ccc2c(c1)nc(N)n1nc([C@@H]3CCCN(c4cnn(C(C)(C)[C@@H](C)O)c4)C3)nc21 [Example 225B] ?
8.49

Same again, this time with CNC(=O)C(C)(C)n1cc(N2CCC[C@@H](c3nc4c5cccc(OC)c5nc(N)n4n3)C2)cn1
8.46

Query COc1cccc2c1nc(N)n1nc(C3CN(c4cnn(CC5(O)CCC5)c4)CC(F)(F)C3)nc21 (single isomer, unassigned) [Example 157B] next
9.15

What do we get for COc1ccc2c(c1)nc(N)n1nc([C@@H]3CC[C@H](C)N(c4cnn(C(C)(C)CO)c4)C3)nc21 ?
9.70

Same question for COc1ccc2c(c1)nc(N)n1nc([C@@H]3CCCN(c4cnn([C@H]5C[C@@](C)(O)C5)c4)C3)nc21 please.
8.89

Try this compound next: COc1cccc2c1nc(N)n1nc(C3CC(F)CN(c4cnn(CC5(O)CCC5)c4)C3)nc21 (stereo not drawn)
7.09

Same question, COc1cccc2c1nc(N)n1nc(C3CC(F)CN(c4cnn(CC(C)(C)O)c4)C3)nc21 (stereo not drawn) this time
6.70

Same question, COc1cccc2c1nc(N)n1nc([C@@H]3CCCN(c4cnn(C(C)(C)CO)c4)C3)nc21 this time
9.40
